Test method notes: Phase 1 part A: PK after single and multiple once-daily oral doses
Assay type: in vivo, human
Measurement context: human, plasma, po, 10 mg, Day 30, 10 mg once daily, White; mean (CV%)
Observation type: AUC(0-t)
Could you give the number and then its unit, please?

Query (molecule): `Cn1c(=O)oc2ccc(-c3ccc(C[C@@H](C#N)NC(=O)[C@@H]4CNCCCO4)cc3)cc21` ; field requested: AUC(0-t) 2100 ng·h/mL

* * *

Test method notes: Phase 1 part B: PK of single 40 mg oral dose, fasted vs fed (food effect)
Assay type: in vivo, human
Measurement context: human, plasma, oral, 40 mg, fasted, White; read-out: median Tmax
Observation type: Tmax (h)
One number for each entry, in h.

Query (molecule): `Cn1c(=O)oc2ccc(-c3ccc(C[C@@H](C#N)NC(=O)[C@@H]4CNCCCO4)cc3)cc21` ; field requested: Tmax 1.3
